From: ChEMBL document CHEMBL3621107

As shown below, each of these molecules has a reported TGI value.
# System: NCI-H226
# METHOD DESCRIPTION: Cytotoxicity against human NCI-H226 cells after 48 hrs by SRB assay
# Assay type: functional
# PARTICULARS: NCI-H226, 48 h
Respond with the bare value in µM.

MOLECULE | NUMERIC READOUT
O=C1c2ccccc2C(=O)c2c1cc(Sc1cccc(Cl)c1)c1nsnc21 | 6.06
O=C1c2ccccc2C(=O)c2c1cc(SCc1ccccc1)c1nsnc21 | 35.2
O=C1c2ccccc2C(=O)c2c1cc(Sc1ccc(F)cc1F)c1nsnc21 | 11.1

Kindly review the next molecule as well.
Consider the molecule `CC(C)Sc1cc2c(c3nsnc13)C(=O)c1ccccc1C2=O` and give its recorded TGI.
4.64

* * *

# Test system: NCI-H460
# METHOD DESCRIPTION: Cytotoxicity against human NCI-H460 cells after 48 hrs by SRB assay
# Assay type: functional
# PARTICULARS: NCI-H460, 48 h
We begin with a simple list: items and their reported GI50.

MOLECULE | SUBJECT OF TEST | GI50
O=C1c2ccccc2C(=O)c2c1cc(Sc1cccc(Cl)c1)c1nsnc21 | NCI-H460 | 4.29 µM
O=C1c2ccccc2C(=O)c2c1cc(SCc1ccccc1)c1nsnc21 | NCI-H460 | > 50 µM
CC(C)Sc1cc2c(c3nsnc13)C(=O)c1ccccc1C2=O | NCI-H460 | 2.02 µM
O=C1c2ccccc2C(=O)c2c1cc(Sc1ccc(F)cc1F)c1nsnc21 | NCI-H460 | 25.9 µM

Note GI50 for the compound shown: `O=C1c2ccccc2C(=O)c2c1cc(Sc1ccccc1Br)c1nsnc21`
36.1 µM

* * *

# TGI per record follows
# Tested on: MCF7
# METHOD DESCRIPTION: Cytotoxicity against human MCF7 cells after 48 hrs by SRB assay
# Assay type: functional
# PARTICULARS: MCF7, 48 h
State just the number; it will be interpreted in µM.

MOLECULE | VALUE UNIT | TGI
O=C1c2ccccc2C(=O)c2c1cc(Sc1ccc(F)cc1F)c1nsnc21 | µM | 3.11

Given `CC(C)Sc1cc2c(c3nsnc13)C(=O)c1ccccc1C2=O` , respond with its TGI.
3.8

// Input: `O=C1c2ccccc2C(=O)c2c1cc(Sc1ccccc1Br)c1nsnc21` . Output its TGI only.
16.6

Give the value of TGI reported for the following: `O=C1c2ccccc2C(=O)c2c1cc(Sc1cccc(Cl)c1)c1nsnc21`
3.37

Kindly indicate its recorded TGI. Item: `O=C1c2ccccc2C(=O)c2c1cc(SCc1ccccc1)c1nsnc21`
17

* * *

# Test system: OVCAR-3
# METHOD DESCRIPTION: Cytotoxicity against human OVCAR3 cells after 48 hrs by SRB assay
# Assay type: functional
# PARTICULARS: OVCAR-3, 48 h, read-out: LC50 (the source's name)
METRIC: CC50 (µM)
Write the number in µM without appending the unit.

Worked cases, answers included:
MOLECULE | CC50, µM
O=C1c2ccccc2C(=O)c2c1cc(Sc1cccc(Cl)c1)c1nsnc21 | 6.5
CC(C)Sc1cc2c(c3nsnc13)C(=O)c1ccccc1C2=O | 2.98
O=C1c2ccccc2C(=O)c2c1cc(Sc1ccc(F)cc1F)c1nsnc21 | 6.52

Now look at this entry.
Report CC50 on OVCAR-3 for this entry: `O=C1c2ccccc2C(=O)c2c1cc(SCc1ccccc1)c1nsnc21`
27.9

* * *

# System: SK-MEL-28
# METHOD DESCRIPTION: Cytotoxicity against human SK-MEL-28 cells assessed as cell growth at 10 uM after 48 hrs by SRB assay relative to control
# Assay type: functional
# PARTICULARS: SK-MEL-28, 48 h, read-out: Activity
Measured growth at 10 µM of individual entries
// units = %; emit number, no label

Example results:
MOLECULE | VALUE UNIT | NUMERIC READOUT
O=C1c2ccccc2C(=O)c2c1cc(Sc1ccccc1)c1nsnc21 | % | 127
O=C1c2ccccc2C(=O)c2c1cc(Sc1ccccc1Br)c1nsnc21 | % | 64.7
Cc1cc(C)cc(Sc2cc3c(c4nsnc24)C(=O)c2ccccc2C3=O)c1 | % | 112
O=C1c2ccccc2C(=O)c2c1cc(Sc1ccc(F)cc1F)c1nsnc21 | % | 79.5
O=C1c2ccccc2C(=O)c2c1cc(SCc1ccccc1)c1nsnc21 | % | 95
Cc1ccc(Sc2cc3c(c4nsnc24)C(=O)c2ccccc2C3=O)c(C)c1 | % | 119

Now look at this one.
# assay system SK-MEL-28: give growth at 10 µM of `COc1ccc(Sc2cc3c(c4nsnc24)C(=O)c2ccccc2C3=O)cc1`
116

* * *

# System: KM12
# METHOD DESCRIPTION: Cytotoxicity against human KM12 cells assessed as cell growth at 10 uM after 48 hrs by SRB assay relative to control
# Assay type: functional
# PARTICULARS: KM12, 48 h, read-out: Activity
METRIC: growth at 10 µM (%)
Output spec: scalar in %, unitless text.

Param request: growth at 10 µM | system KM12 | item `Cc1ccccc1Sc1cc2c(c3nsnc13)C(=O)c1ccccc1C2=O`
103

* * *

Measured growth at 10 µM, listed per entry for reference.
# Test system: A549
# METHOD DESCRIPTION: Cytotoxicity against human A549 cells assessed as cell growth at 10 uM after 48 hrs by SRB assay relative to control
# Assay type: functional
# PARTICULARS: A549, 48 h, read-out: Activity
The reply should be a number in %, with the unit left off.

Please review the entries below; each comes with its answer.
MOLECULE | SUBJECT OF TEST | growth at 10 µM (%)
O=C1c2ccccc2C(=O)c2c1cc(SCc1ccccc1)c1nsnc21 | A549 | 102
COc1ccc(Sc2cc3c(c4nsnc24)C(=O)c2ccccc2C3=O)cc1 | A549 | 103
CSc1ccc(Sc2cc3c(c4nsnc24)C(=O)c2ccccc2C3=O)cc1 | A549 | 105
O=C1c2ccccc2C(=O)c2c1cc(SCc1ccc(Cl)cc1)c1nsnc21 | A549 | 101
O=C1c2ccccc2C(=O)c2c1cc(Sc1ccc(F)cc1F)c1nsnc21 | A549 | 112
O=C1c2ccccc2C(=O)c2c1cc(Sc1ccccc1)c1nsnc21 | A549 | 106
CC(C)Sc1cc2c(c3nsnc13)C(=O)c1ccccc1C2=O | A549 | -8.14
O=C1c2ccccc2C(=O)c2c1cc(Sc1ccccc1Br)c1nsnc21 | A549 | 95.4
O=C1c2ccccc2C(=O)c2c1cc(Sc1cc(Cl)ccc1Cl)c1nsnc21 | A549 | 103
Cc1ccc(Sc2cc3c(c4nsnc24)C(=O)c2ccccc2C3=O)c(C)c1 | A549 | 110

Input `Cc1cc(C)cc(Sc2cc3c(c4nsnc24)C(=O)c2ccccc2C3=O)c1` , output reported growth at 10 µM.
107

Read off the recorded growth at 10 µM for `CCOc1cccc(Sc2cc3c(c4nsnc24)C(=O)c2ccccc2C3=O)c1`
111

// Input: `O=C1c2ccccc2C(=O)c2c1cc(Sc1ccc(Cl)cc1)c1nsnc21` . Output its growth at 10 µM only.
104

* * *

Quick reference for CC50 among some compounds
# Tested on: SN12C
# METHOD DESCRIPTION: Cytotoxicity against human SN12C cells after 48 hrs by SRB assay
# Assay type: functional
# PARTICULARS: read-out: LC50 (the source's name)
Entry rule: numbers only, all in µM.

MOLECULE | CC50 / µM
O=C1c2ccccc2C(=O)c2c1cc(Sc1ccc(F)cc1F)c1nsnc21 | 19.4
CC(C)Sc1cc2c(c3nsnc13)C(=O)c1ccccc1C2=O | 7.09
O=C1c2ccccc2C(=O)c2c1cc(Sc1cccc(Cl)c1)c1nsnc21 | 6.35

Name the recorded CC50 of `O=C1c2ccccc2C(=O)c2c1cc(SCc1ccccc1)c1nsnc21` , assay system SN12C.
29.3

* * *

# Tested on: NCI-H522
# METHOD DESCRIPTION: Cytotoxicity against human NCI-H522 cells assessed as cell growth at 10 uM after 48 hrs by SRB assay relative to control
# Format: functional
# PARTICULARS: NCI-H522, 48 h, read-out: Activity
METRIC: growth at 10 µM (%)
Dear colleague, please return just the value in %, with no unit written.

Please review the entries below; each comes with its answer.
MOLECULE | growth at 10 µM / %
CCOc1cccc(Sc2cc3c(c4nsnc24)C(=O)c2ccccc2C3=O)c1 | 98.2
CC(C)Sc1cc2c(c3nsnc13)C(=O)c1ccccc1C2=O | -59.5
Cc1ccc(Sc2cc3c(c4nsnc24)C(=O)c2ccccc2C3=O)c(C)c1 | 96.8

Return the recorded growth at 10 µM value; entry: `COc1cccc(Sc2cc3c(c4nsnc24)C(=O)c2ccccc2C3=O)c1`
82.4

Provide growth at 10 µM value for the following molecule: `Cc1cccc(C)c1Sc1cc2c(c3nsnc13)C(=O)c1ccccc1C2=O`
61.4
